Exercise: for every item that follows, state its recorded MIC.
# System: E. coli JJ2489
# Format: cell-based
# Study Conditions: JJ2489, 1 h
Where a SMILES comes first, the peptide text is derived from it.

Example molecules with recorded MIC:
Molecule	MIC
CC[C@H](C)[C@H](NC(=O)[C@H](CCCNC(=N)N)NC(=O)[C@@H](N)CCCNC(=N)N)C(=O)N[C@@H](CCCCN)C(=O)N[C@@H](CCCCN)C(=O)N[C@@H](CCCNC(=N)N)C(=O)N1CCC[C@H]1C(=O)N1CCC[C@H]1C(=O)N[C@@H](CCCNC(=N)N)C(=O)N[C@@H](CC(C)C)C(=O)N1CCC[C@H]1C(=O)N[C@@H](CCCNC(=N)N)C(=O)N1CCC[C@H]1C(=O)N[C@@H](CCCNC(=N)N)C(=O)N1CCC[C@H]1C(=O)N[C@@H](CCCCN)C(=O)O [Bac_R4K/P5K/R16K] (H-RRIKKRPPRLPRPRPK-OH)	0.120 ± 0.028 µM
CC(C)C[C@H](NC(=O)[C@H](CCCNC(=N)N)NC(=O)[C@@H]1CCCN1C(=O)[C@H](Cc1c[nH]cn1)NC(=O)[C@@H]1CCCN1C(=O)[C@@H]1CCCN1C(=O)[C@H](CCCNC(=N)N)NC(=O)[C@@H]1CCCN1C(=O)[C@H](CCC(N)=O)NC(=O)[C@@H]1CCCN1C(=O)[C@H](CCCNC(=N)N)NC(=O)[C@H](Cc1ccc(O)cc1)NC(=O)[C@@H](NC(=O)[C@@H]1CCCN1C(=O)[C@H](CCCCN)NC(=O)[C@H](CC(N)=O)NC(=O)[C@H](CC(N)=O)NC(=O)CN)C(C)C)C(=O)O [Api_R4K/I8R] (H-GNNKPVYRPQPRPPHPRL-OH)	0.034 ± 0.017 µM
CC[C@H](C)[C@H](NC(=O)[C@H](Cc1ccc(O)cc1)NC(=O)[C@@H](NC(=O)[C@@H]1CCCN1C(=O)[C@H](CCCCN)NC(=O)[C@H](CC(N)=O)NC(=O)[C@H](CC(N)=O)NC(=O)CN)C(C)C)C(=O)N1CCC[C@H]1C(=O)N[C@@H](CCC(N)=O)C(=O)N1CCC[C@H]1C(=O)N[C@@H](CCCNC(=N)N)C(=O)N1CCC[C@H]1C(=O)N1CCC[C@H]1C(=O)N[C@@H](CCCNC(=N)N)C(=O)N1CCC[C@H]1C(=O)N[C@@H](CCCNC(=N)N)C(=O)N[C@@H](CC(C)C)C(=O)O [Api_R4K/H15R] (H-GNNKPVYIPQPRPPRPRL-OH)	0.067 ± 0.033 µM
CC(C)C[C@H](NC(=O)[C@H](CCCNC(=N)N)NC(=O)[C@@H]1CCCN1C(=O)[C@H](Cc1c[nH]cn1)NC(=O)[C@@H]1CCCN1C(=O)[C@@H]1CCCN1C(=O)[C@H](CCCNC(=N)N)NC(=O)[C@@H]1CCCN1C(=O)[C@H](CCC(N)=O)NC(=O)[C@@H]1CCCN1C(=O)[C@H](CCCCN)NC(=O)[C@H](Cc1ccc(O)cc1)NC(=O)[C@@H](NC(=O)[C@@H]1CCCN1C(=O)[C@H](CCCCN)NC(=O)[C@H](CC(N)=O)NC(=O)[C@H](CC(N)=O)NC(=O)CN)C(C)C)C(=O)O [Api_R4K/I8K] (H-GNNKPVYKPQPRPPHPRL-OH)	0.031 ± 0.014 µM
CC(C)C[C@H](NC(=O)[C@H](CCCNC(=N)N)NC(=O)[C@@H]1CCCN1C(=O)[C@H](CCCNC(=N)N)NC(=O)[C@@H]1CCCN1C(=O)[C@@H]1CCCN1C(=O)[C@H](CCCNC(=N)N)NC(=O)[C@@H]1CCCN1C(=O)[C@H](CCC(N)=O)NC(=O)[C@@H]1CCCN1C(=O)[C@H](CCCCN)NC(=O)[C@H](Cc1ccc(O)cc1)NC(=O)[C@@H](NC(=O)[C@@H]1CCCN1C(=O)[C@H](CCCCN)NC(=O)[C@H](CC(N)=O)NC(=O)[C@H](CC(N)=O)NC(=O)CN)C(C)C)C(=O)O [Api_R4K/I8K/H15R] (H-GNNKPVYKPQPRPPRPRL-OH)	0.252 ± 0.087 µM

Now for another entry.
// fetch E. coli JJ2489 MIC for CC[C@H](C)[C@H](NC(=O)[C@H](CCCNC(=N)N)NC(=O)[C@@H](N)CCCNC(=N)N)C(=O)N[C@@H](CCCNC(=N)N)C(=O)N[C@@H](CCCCN)C(=O)N[C@@H](CCCNC(=N)N)C(=O)N1CCC[C@H]1C(=O)N1CCC[C@H]1C(=O)N[C@@H](CCCNC(=N)N)C(=O)N[C@@H](CC(C)C)C(=O)N1CCC[C@H]1C(=O)N[C@@H](CCCNC(=N)N)C(=O)N1CCC[C@H]1C(=O)N[C@@H](CCCNC(=N)N)C(=O)N1CCC[C@H]1C(=O)N[C@@H](CCCCN)C(=O)O [Bac_P5K/R16K] (H-RRIRKRPPRLPRPRPK-OH)
0.120 ± 0.028 µM
